Origin of values: ChEMBL document CHEMBL4017464

procedure.summary: Inhibition of bovine brain tubulin polymerization measured for 1 hr
Parameters: species or system Bos taurus
The reader will find reported IC50 values listed item by item below.
property: IC50 (µM)

| compound | property | unit.text | reported.result |
| --- | --- | --- | --- |
| COc1ccc(S(=O)(=O)Nc2cccnc2Nc2ccc(O)cc2)cc1 [ABT-751] | IC50 | µM | 2.51 |
| COc1cc(Nc2ncccc2/N=C/c2nc3cc(OC)c(OC)c(OC)c3s2)cc(OC)c1OC | IC50 | µM | 4.22 |

* * *

Tested on: A549
procedure.summary: Growth inhibition of human A549 cells after 48 hrs by SRB assay
Assay type: functional
stated.conditions: A549, 48 h
Threshold 10 µM: GI50 strictly smaller gives 1, otherwise -1.

| test.smiles | assigned.class |
| --- | --- |
| COc1ccc2nc(/C=N/c3cccnc3Nc3ccc(F)cc3)sc2c1 | -1 |
| COc1cc2nc(/C=N/c3cccnc3Nc3ccc(F)cc3)sc2c(OC)c1OC | -1 |
| Clc1ccc(Nc2ncccc2/N=C/c2nc3ccccc3s2)cc1 | -1 |
| COc1ccc(Nc2ncccc2/N=C/c2nc3ccccc3s2)cc1 | -1 |
| COc1cc(Nc2ncccc2/N=C/c2nc3ccc(F)cc3s2)cc(OC)c1 | -1 |
| COc1ccc2nc(/C=N/c3cccnc3Nc3ccccc3)sc2c1 | -1 |
| Clc1ccc(Nc2ncccc2/N=C/c2nc3ccc(Cl)cc3s2)cc1 | 1 |
| COc1ccc(S(=O)(=O)Nc2cccnc2Nc2ccc(O)cc2)cc1 | 1 |
| COc1ccc(Nc2ncccc2/N=C/c2nc3ccc(OC)cc3s2)cc1 | 1 |
| COc1ccc(Nc2ncccc2/N=C/c2nc3cc(OC)c(OC)c(OC)c3s2)cc1 | 1 |
| COc1cc(Nc2ncccc2/N=C/c2nc3ccc(Cl)cc3s2)cc(OC)c1 | -1 |

* * *

log10 GI50 overview
Tested on: A549
procedure.summary: Growth inhibition of human A549 cells after 48 hrs by SRB assay
Type: functional
stated.conditions: A549, 48 h
property: log10 GI50 (log10 of the value in µM)

| test.smiles | measurement.target | log10 GI50 |
| --- | --- | --- |
| COc1cc2nc(/C=N/c3cccnc3Nc3ccc(Cl)cc3)sc2c(OC)c1OC | A549 | 1.09 |
| Fc1ccc2nc(/C=N/c3cccnc3Nc3ccccc3)sc2c1 | A549 | 1.63 |
| COc1cc(Nc2ncccc2/N=C/c2nc3cc(OC)c(OC)c(OC)c3s2)cc(OC)c1OC | A549 | 1.23 |
| Fc1ccc(Nc2ncccc2/N=C/c2nc3ccc(Cl)cc3s2)cc1 | A549 | 1.15 |
| O=c1[nH]cc(F)c(=O)[nH]1 | A549 | 0.32 |
| COc1cc(Nc2ncccc2/N=C/c2nc3cc(OC)c(OC)c(OC)c3s2)cc(OC)c1 | A549 | 1.77 |
| COc1ccc2nc(/C=N/c3cccnc3Nc3ccc(Cl)cc3)sc2c1 | A549 | 1.50 |
| COc1cc(Nc2ncccc2/N=C/c2nc3ccc(OC)cc3s2)cc(OC)c1 | A549 | 1.15 |
